- measurement-target: Acetylcholinesterase (Mus musculus) (UniProt P21836)
- Sequence (P21836 whole entry): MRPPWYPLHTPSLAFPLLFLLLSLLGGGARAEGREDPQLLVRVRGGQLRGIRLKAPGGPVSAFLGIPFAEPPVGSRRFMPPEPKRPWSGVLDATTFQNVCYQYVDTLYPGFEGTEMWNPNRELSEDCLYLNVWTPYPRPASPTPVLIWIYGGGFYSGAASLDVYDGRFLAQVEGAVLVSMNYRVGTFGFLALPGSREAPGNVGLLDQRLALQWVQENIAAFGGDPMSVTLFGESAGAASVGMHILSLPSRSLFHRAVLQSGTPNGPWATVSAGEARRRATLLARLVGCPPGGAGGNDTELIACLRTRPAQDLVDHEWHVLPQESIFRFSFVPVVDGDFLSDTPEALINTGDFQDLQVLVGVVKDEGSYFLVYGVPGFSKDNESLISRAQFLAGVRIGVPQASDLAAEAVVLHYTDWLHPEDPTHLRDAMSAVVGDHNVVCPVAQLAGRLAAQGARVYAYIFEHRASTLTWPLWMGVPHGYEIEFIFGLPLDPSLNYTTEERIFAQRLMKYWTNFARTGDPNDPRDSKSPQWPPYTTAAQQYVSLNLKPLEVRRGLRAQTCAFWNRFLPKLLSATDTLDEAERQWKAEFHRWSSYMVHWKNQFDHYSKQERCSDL
- test-conditions: Brain, at 25 µM
readout-name: inhibition (%)
Please reply with the bare figure in % and do not write the unit itself.

Recorded inhibition, per entry:
line-notation	measurement-target	reported-value
COc1ccc(C(=O)Oc2cccc(/C=C3\Cc4ccccc4C3=O)c2)cc1	Acetylcholinesterase (Mus musculus) (UniProt P21836)	41.9
O=C(Oc1cccc(/C=C2\Cc3ccccc3C2=O)c1)c1cc(Cl)cc(Cl)c1	Acetylcholinesterase (Mus musculus) (UniProt P21836)	43.5

// recorded inhibition for `O=C(Oc1cccc(/C=C2\Cc3ccccc3C2=O)c1)c1ccc(F)cc1` : 51.6

// recorded inhibition for `O=C(Oc1cccc(/C=C2\Cc3ccccc3C2=O)c1)c1ccccc1F` : 35.2

// recorded inhibition for `O=C(Oc1cccc(/C=C2\Cc3ccccc3C2=O)c1)c1cc(C(F)(F)F)cc(C(F)(F)F)c1` : 59.7

// recorded inhibition for `O=C(Oc1cccc(/C=C2\Cc3ccccc3C2=O)c1)c1ccc([N+](=O)[O-])cc1` : 60.8
